Some binders, each annotated with its measured Kd.
Target: T1, mouse IL-2 receptor βγc heterodimer (mIL-2Rβγc), soluble (mouse, UniProt P16297 27-240; P34902 23-263, biotin on the C-terminal biotin acceptor peptide)
T1 construct: extracellular domain; also called MmIL-2Rβγc; mIL-2Rβνc
T1 sequence 1: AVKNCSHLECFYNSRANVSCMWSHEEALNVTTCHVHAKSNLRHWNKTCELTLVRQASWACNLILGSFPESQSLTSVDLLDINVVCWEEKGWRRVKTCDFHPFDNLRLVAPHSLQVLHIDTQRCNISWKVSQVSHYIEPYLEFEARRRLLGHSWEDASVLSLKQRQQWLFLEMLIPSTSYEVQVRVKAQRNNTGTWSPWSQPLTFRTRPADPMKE
T1 sequence 2: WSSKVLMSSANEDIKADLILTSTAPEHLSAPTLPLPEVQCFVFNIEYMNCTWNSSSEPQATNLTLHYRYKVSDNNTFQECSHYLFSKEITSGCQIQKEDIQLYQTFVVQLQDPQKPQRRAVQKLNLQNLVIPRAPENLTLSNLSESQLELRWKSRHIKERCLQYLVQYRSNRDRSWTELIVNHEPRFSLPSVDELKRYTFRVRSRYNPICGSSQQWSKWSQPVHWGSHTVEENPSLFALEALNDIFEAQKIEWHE
Test: SPR, equilibrium titration; IL-2Rγ on streptavidin chip, saturating IL-2Rβ in solution
Procedure: Less than 100 response units (RU) of each ligand was immobilized to minimize mass transfer effects. […] Surface regeneration for all interactions was conducted using 15 s exposure to 1 M MgCl2 in 10 mM sodium acetate pH 5.5. […] After baseline measurement in binding buffer alone, the binding kinetics were monitored by dipping the biosensors in wells containing 100 nM of the designed protein (association) and then dipping the sensors back into baseline wells (dissociation).
Write the answer as a number in nM, unit excluded.

Below are worked cases with known answers.
binder	Kd [nM]
G1_neo2_40_1F_H3 (designed binder) STKKTQLLIEHALLDALNMRKKLPEPNEKLSRIITDMQSWIFTGKIDGDGAQQLAKEVEELEQEHEKRGGDVEDYASNLKVILLELA	3830
G2_neo2_40_1F_seq26 (designed binder) TKKKYQLLIEHALLDALMILNLWSESNEKLNRIITTMQSWIFTGTYDPDKAEELEKLAKEIEDEARERGIDTEDYMSNLRVILKELS	27.8

Form: binder = G1_neo2_40_1F (designed binder, also called G1_ne02_40_1F) STKKTQLLAEHALLDALMMLNLLPEPNEKLNRIITTMQSWIFTGKIDGDGAQELAKEVEELEQEHEKRGIDVEDYASNLKVILLELA ; Kd = 7.9
